Kindly supply the reported inhibition values for the records listed here.
# MEASUREMENT TARGET: Hexose transporter 1 (Plasmodium falciparum) (UniProt O97467)
# ASSAY NAME: ST_JUDE_LEISH: Cytotoxicity at 2uM final concentration against transgenic Leishmania Mexicana promastigotes LmPfHT that are glucose transport deficient and complemented with the Plasmodium falciparum hexose transporter. Activity is measured by DNA content using SYBR green in vitro
# Format: functional
Answers are plain numbers, in %.

The following compounds have reported results that may help.
CC(C)c1ccc(CN2CCC(CNC(=O)c3cc(-c4cccc(C(F)(F)F)c4)cs3)C2)cc1 (stereo not given) ... 1.74
CCCCc1ccc(-c2nc(NC(=O)Nc3[nH]c(-c4ccccc4)nc3C(=O)OCC)c(C(=O)OCC)[nH]2)cc1 ... 0.82
CCCCCCNCCOc1ccc(-c2nc(-c3ccccc3)c(-c3ccccc3)[nH]2)cc1 ... 1.32

Lab note: each compound below needs its inhibition filled in.
1. CCOc1ccc(-c2nonc2NC(=O)CC(C)C)cc1OCC
2. COc1ccc(CCN(C)CCOc2ccc(NC(=O)c3cc(SC)cc4c(=O)c5ccccc5[nH]c34)cc2)cc1OC

1. -0.84
2. 3.15

* * *

# MEASUREMENT TARGET: Solute carrier family 2, facilitated glucose transporter member 1 (Homo sapiens) (UniProt P11166)
# Sequence (P11166 whole entry): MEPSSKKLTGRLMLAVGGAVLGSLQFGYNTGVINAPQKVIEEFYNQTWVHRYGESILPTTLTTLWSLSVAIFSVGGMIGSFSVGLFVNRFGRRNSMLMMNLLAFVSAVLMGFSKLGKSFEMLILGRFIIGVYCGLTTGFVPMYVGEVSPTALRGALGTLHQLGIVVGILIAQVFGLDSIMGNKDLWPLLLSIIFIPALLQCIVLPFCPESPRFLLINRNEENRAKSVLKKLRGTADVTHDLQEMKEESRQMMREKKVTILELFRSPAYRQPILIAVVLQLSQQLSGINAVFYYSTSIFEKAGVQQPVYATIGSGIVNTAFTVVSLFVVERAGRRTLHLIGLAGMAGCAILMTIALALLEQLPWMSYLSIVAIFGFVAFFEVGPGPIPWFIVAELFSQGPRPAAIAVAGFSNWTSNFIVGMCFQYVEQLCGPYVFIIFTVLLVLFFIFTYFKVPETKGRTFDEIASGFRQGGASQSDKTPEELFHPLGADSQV
# ASSAY NAME: ST_JUDE_LEISH: Cytotoxicity at 2uM final concentration against transgenic Leishmania Mexicana promastigotes LmGLUT1 that are glucose transport deficient and complemented with the human glucose transporter GLUT1. Activity is measured by DNA content using SYBR green in vitro
# Format: functional
RECORDED ENDPOINT: inhibition (%)
One number for each entry, in %.

The following compounds have reported results that may help.
COc1cccc(-c2ccc3c(-c4ccc(F)cc4)cnc(N)c3c2)c1 ... 5.2
O=S(=O)(c1cccc(Cl)c1F)N(CCC(O)(C(F)(F)F)C(F)(F)F)Cc1cccc(O)c1 ... 5.8
Oc1cccc(CCNCCCCCCNCCc2ccc(Cl)cc2)c1 ... 2.27
O=C(NCc1ccc(Cl)c(Cl)c1)[C@H]1CNCCN1C(=O)c1ccccc1 ... 2.83
CCCN(CCC)CCCNc1ccc(C(=O)Nc2ccc(OCC)cc2)cc1[N+](=O)[O-] ... 32.8
COc1cccc(CCNCc2ccc(-c3cccc(CNC4CCCC4)c3)cc2)c1 ... 7.38
Cc1ccc(C(=O)Nc2cccc(CN3CCCN(Cc4ccc(O)cc4)CC3)c2)s1 ... -2.38
O=C(CCCCCNC(=O)c1ccc(O)c(-c2ccc(Cl)c(Cl)c2)c1)NCc1cccc(C(F)(F)F)c1 ... -1.4
COc1cc2nc(N3CCC(CNC(=O)/C=C/c4cccc(C)c4)CC3)nc(N)c2cc1OC ... 7.71
COc1ccc(CNCc2ccccc2)cc1-c1ccc(S(=O)(=O)NCCN2CCCC2)c(F)c1 ... 18.3

Lab note: each compound below needs its inhibition filled in.
1. CCCCN(CCCC)CCC(O)C(=Cc1ccc(Cl)cc1Cl)c1ccc(C(F)(F)F)cc1N (centres undefined)
2. CC(C)(C)c1cc(Cl)cc(C(=O)Nc2cc([N+](=O)[O-])ccc2Cl)c1O
3. O=C(C=Cc1ccc(Cl)c(Cl)c1)NCCCCCN1CCC(CCCNC(=O)c2sc3ccccc3c2Cl)CC1
4. CC(C)(C)c1ccc(OC(=O)c2ccc(NC(=O)N[C@@H](Cc3ccc(O)cc3)C(=O)NC3CCN(Cc4ccc(O)cc4)C3)cc2)cc1 (some centres undefined)

1. -0.65
2. 5.8
3. 2.7
4. 9.86

Lab note: each compound below needs its inhibition filled in.
1. CCOc1ccc2c(=NN=Cc3ccc(F)cc3)cc(C)[nH]c2c1
2. COc1cccc2cc(C(=O)N[C@@H](CC(C)C)C(=O)N[C@H](C=NN3CCCC3=O)Cc3ccccc3)oc12
3. CNS(=O)(=O)c1ccc2c(c1)nc(C1CCN(CC3CCC(NC(=O)/C=C/c4ccc(Cl)c(Cl)c4)CC3)CC1)n2C (centres undefined)
4. Cc1ccc(-c2ccc(NC(=O)N3CCc4cc(Br)c(N5CCN(C)CC5)cc43)cc2)cn1
5. CN(C)CCOc1cc(O)c2c(c1)OC(C)(C)C=C2c1cccs1

4.44
2.46
11.9
2.03
-0.97

* * *

# MEASUREMENT TARGET: Solute carrier family 2, facilitated glucose transporter member 1 (Homo sapiens)
# ASSAY NAME: ST_JUDE_LEISH: Cytotoxicity at 2uM final concentration against transgenic Leishmania Mexicana promastigotes LmGLUT1 that are glucose transport deficient and complemented with the human glucose transporter GLUT1. Activity is measured by DNA content using SYBR green in vitro
# Type: functional
RECORDED ENDPOINT: inhibition

N#Cc1ccccc1Sc1ccccc1C(=O)Nc1ccc2ccccc2n1 ... 7.84%
CC(CN(C)C)C(=O)Nc1cccc(-c2cccc(-c3nc4ccccc4[nH]3)c2)c1 (stereo not given) ... -0.1%
O=C(NC1CCCC1)c1ccc(N2CCC(NCc3cc4cc(Cl)ccc4[nH]3)CC2)cc1 ... 2.79%
Nc1ccc(-c2ccc3ccnc(N)c3c2)cc1 ... 0.24%
Cc1nn(-c2ccccc2)c2sc(C(=O)N(CCCN(C)C)c3nc(-c4ccccc4)cs3)cc12 ... 1.15%
Oc1ccccc1CNC1CCCCC1NCc1ccccc1O (stereo not given) ... 7.77%

Lab note: each compound below needs its inhibition filled in.
1. Cc1ccc(C(=O)Nc2ccc(Nc3ccnc4cc(-c5nccs5)ccc34)cc2O)cc1
2. O=C(Nc1ccc2c(c1)CCC2)c1ccc(N2CCN(c3ccncc3)CC2)cn1
3. Cc1cc(N2C(N)=NC(N)=NC2(C)C)ccc1Cl

6.24%
11.7%
0.08%

Lab note: each compound below needs its inhibition filled in.
1. NCc1cccc(-c2ccc3ccnc(N)c3c2)c1
2. Oc1ccc2[nH]c(-c3ccc(OC(F)(F)F)cc3)nc2c1CNC1CCCC1
3. CCN(CCCN1CCCCC1)c1cc(C)nc(Nc2cc(Cl)cc(Cl)c2)n1
4. COc1cc(NC(=O)/C=C/c2ccccc2OC(F)(F)F)cc(OCCN2CCCCC2)c1
5. O=C(N[C@H](Cc1ccc(Cl)cc1)C(=O)N1CCN(c2ccnc3cc(Cl)ccc23)CC1)[C@H]1Cc2ccccc2CN1
6. CC(C)COc1ccc2ccccc2c1CNCCCCCCNCc1c(OCC(C)C)ccc2ccccc12
7. CCc1c(C)nc(-n2nc(C)cc2NC(=O)C2c3ccccc3Oc3ccccc32)[nH]c1=O
8. COc1ccc2nccc([C@@H](O)CN3CCC(NCCOc4c(C)cccc4F)CC3)c2c1

1. 0.01%
2. 2.65%
3. 0.93%
4. 2.6%
5. 0.9%
6. 86.6%
7. -0.64%
8. 5.89%

Lab note: each compound below needs its inhibition filled in.
1. CCN(CC)CCCC(C)N/C(=N\c1ccccc1Br)Nc1ccc(C#N)cc1O (stereo not given)
2. Cc1cc(Cl)c(S(=O)(=O)NC(C)(C)C)cc1OCC(=O)NC1CCCCC1
3. CCN1CCN(c2ccc(Nc3ccnc4ccc(Br)cc34)cc2)CC1
4. COc1ccc(-c2cccc(CNC3CCN(CC4Cn5c(=O)ccc6ccc(F)c4c65)CC3)c2)cc1 (stereo not given)
5. COc1ccc2nccc(N(C)CC3(O)CCC(NCc4cc5c(cn4)OCCO5)CC3)c2n1 (stereo not given)
6. COc1ccc(-n2ccnc2SCC(=O)Nc2cc(C(F)(F)F)ccc2Cl)c(OC)c1

1.03%
-0.97%
1.43%
10.7%
1.51%
12.8%

Lab note: each compound below needs its inhibition filled in.
1. COc1cc2ccccc2c(OC)c1CCNCCCCNCCc1c(OC)cc2ccccc2c1OC
2. O=C(Nc1ccc(OC2CCN(Cc3ccsc3)C2)c(Cl)c1)c1ccc(F)cc1 (stereo not given)
3. O=C(Nc1cccc(C(F)(F)F)c1)c1ccc(S(=O)(=O)NCC2CCN(CC3CCCCC3)CC2)cc1
4. Cc1cc(=NN=Cc2cccc(F)c2)c2cccc(C)c2[nH]1
5. Cc1cc(Cl)ccc1NC(=O)Nc1ccc2nccc(N3CCN(C)CC3)c2c1

10.9%
0.29%
3.47%
2.24%
3.07%

Lab note: each compound below needs its inhibition filled in.
1. O=C(NCCCCN1CCC(c2ccc3c(c2OCC2COCO2)CCCC3)CC1)c1ccc(-c2ccc(C(F)(F)F)cc2)cc1 (stereo not given)
2. COc1ccc(CCNc2nc(N)c3cc(OC)c(OC)cc3n2)cc1
3. COc1ccc(Cl)cc1-c1nc(C(=O)NCCN2CCCCC2)c(C(C)C)s1
4. CC(C)(C)OC(=O)c1c(NC(=O)/C=C/c2ccc(O)c(O)c2)sc2c1CCCC2

["-0.33%", "2.3%", "-3.64%", "-1.88%"]

Lab note: each compound below needs its inhibition filled in.
1. CN1CCC(NCc2ccc(-c3ccc(S(=O)(=O)NC4CCC4)s3)cc2)CC1
2. Cc1cccc2nc(-c3ccc(-c4ccc(NC(=O)C(C)CN(C)C)cc4)s3)[nH]c12 (stereo not given)
3. Cc1cccc2nc(-c3cccc(-c4cccc(NC(=O)c5cccnc5Cl)c4)c3)[nH]c12
4. CN1CCCC1CCNCc1cccc(-c2cnc(N3CCCC(C)(C)C3)nc2)c1 (stereo not given)
5. CCCC[C@H](NC(=O)O[C@H](COc1ccc(OCc2ccccc2)cc1)C(C)(C)C)C(=O)C(=O)Nc1cc[nH]n1

["3.46%", "4.89%", "1.25%", "108%", "3.68%"]

Lab note: each compound below needs its inhibition filled in.
1. COc1ccc(Nc2ncc3c(-c4cccc(NC(=O)Cc5ccncc5)c4)c[nH]c3n2)cc1OC
2. Nc1ccc(-c2nc3cc(C4=N[C@H]5CCCC[C@H]5N4)ccc3o2)cc1[N+](=O)[O-]
3. CCCNCc1ccc(-c2ccc(CNC3Cc4ccccc4C3)cc2)nc1

1: -0.87%; 2: 3.44%; 3: -0.04%

Reference source: ChEMBL document CHEMBL3433997
